Measured values drawn from patent US4500731A for this set.

Each entry below carries its reported LD50.
- method: acute toxicity (LD50)
- assayContext: mouse, in vivo, po; orally in mice
- Procedure: (3) Determination of acute toxicity The LD50 was evaluated after administration of the products orally in mice.

- substanceSmiles: "COc1cc(C(=O)/C=C/C(=O)O)ccc1O"
  LD50, mg/kg: 1000
- substanceSmiles: "O=C(O)/C=C/C(=O)c1ccc2c(c1)OCCO2"
  LD50, mg/kg: 750
